Procedure Details: in vitro
Assay type: in vitro ADME
Reported Conditions: human, Caco-2
Some molecules, each annotated with its measured efflux ratio at 90 min.

Compound	efflux ratio at 90 min
CC(C)(C)[C@H](N)C(=O)OC[C@H]1O[C@@](C#N)(c2ccc3c(N)ncnn23)[C@H](O)[C@@H]1O	3.2
CNc1nc(N)nc2c1ncn2[C@@H]1O[C@H](COC(=O)CC(C)C)[C@@H](OC(=O)CC(C)C)[C@@]1(C)F	0.28
CC(=O)Nc1ncnn2c([C@]3(C#N)O[C@H](COC(=O)CC4CCCCC4)[C@@H](OC(=O)[C@@H](N)C(C)C)[C@H]3O)ccc12	30
CC(C)[C@H](N)C(=O)Nc1ncnn2c([C@]3(C#N)O[C@H](CO)[C@@H](OC(=O)CC4CCCCC4)[C@H]3O)ccc12	34
CCC(=O)O[C@H]1[C@@H](O)[C@](C#N)(c2ccc3c(N)ncnn23)O[C@@H]1COC(=O)CC1CCCCC1	1
C[C@H]1CC[C@H](CC(=O)OC[C@H]2O[C@@](C#N)(c3ccc4c(N)ncnn34)[C@H](O)[C@@H]2O)CC1	2.2
